Target: T1, cTnI quality control product recombinant protein (human, UniProt P19429 2-210, limits assumed)
T1 construct: treated as the same molecule; also called cTnI antigen; cardiac troponin I
T1 sequence (P19429 2-210 limits assumed): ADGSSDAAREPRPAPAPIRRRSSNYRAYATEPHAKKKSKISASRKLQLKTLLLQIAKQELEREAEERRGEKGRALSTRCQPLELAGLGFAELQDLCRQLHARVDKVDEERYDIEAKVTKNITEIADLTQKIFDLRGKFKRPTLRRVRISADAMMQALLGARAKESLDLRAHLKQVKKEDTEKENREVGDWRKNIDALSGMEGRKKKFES
Experiment: AMC sensor, antibody immobilised, cTnI in solution
Below is a list of entries, each paired with its recorded pKd value.
// returns pKd (minus log10 of molar concentration), number only

# binder, readout label, test result
data = [
    ("Mutation 1-38 (antibody, V domains shown, Built as m8) VH: EVQLQQSGPELVKPGASVKMSCKASGYTFTIYVIHWVKQKPGQGLEWIGYIYPYIDGTKYNEKFKGKATLTVDKSSSTAFMELSSLTSEDSAVYYCARSGYGGYGLAWLAYWGQGTLVTVSA VL: QAVVIQESALTTSPGETVTLTCRSSTGAVTTSQYANWVQEKPDHLFTGLIGGSNNRAPGVPARFSGSLIGDKAALTITGAQTEDEAIYFCALVYSNNWVFGGGTKLTVLG", "pKd", 9.60),
]

## Input Field request: pKd | item: Mutation 1-35 (antibody, V domains shown, Built as m8) VH: EVQLQQSGPELVKPGASVKMSCKASGYTFTLYVIHWVKQKPGQGLEWIGYIQPYLDGTKYNEKFKGKATLTVDKSSSTAFMELSSLTSEDSAVYYCARSGYGGYGLAWLAYWGQGTLVTVSA VL: QAVVIQESALTTSPGETVTLTCRSSTGAATTSNYANWVQEKPDHLFTGLIGGSQNRAPGVPARFSGSLIGDKAALTITGAQTEDEAIYFCALVYSNQWVFGGGTKLTVLG
## Output 9.08

## Input Please do the same for Mutation 1-19 (antibody, V domains shown, Built as m8) VH: EVQLQQSGPELVKPGASVKMSCKASGYTFTIYVLHWVKQKPGQGLEWIGYINPYLDGTKYNEKFKGKATLTVDKSSSTAFMELSSLTSEDSAVYYCARSGYGNYGLAWLAYWGQGTLVTVSA VL: QAVVIQESALTTSPGETVTLTCRSSTGAVTTSNYANWVQEKPDHLFTGLIGGSQNRAPGVPARFSGSLIGDKAALTITGAQTEDEAIYFCALVYSNQWVFGGGTKLTVLG as well.
## Output 8.32

Values were extracted from patent US20220033484A1.
